Entries annotated with measured pIC50
assayed system: human FAK (Homo sapiens)
Sequence (Q05397 whole entry): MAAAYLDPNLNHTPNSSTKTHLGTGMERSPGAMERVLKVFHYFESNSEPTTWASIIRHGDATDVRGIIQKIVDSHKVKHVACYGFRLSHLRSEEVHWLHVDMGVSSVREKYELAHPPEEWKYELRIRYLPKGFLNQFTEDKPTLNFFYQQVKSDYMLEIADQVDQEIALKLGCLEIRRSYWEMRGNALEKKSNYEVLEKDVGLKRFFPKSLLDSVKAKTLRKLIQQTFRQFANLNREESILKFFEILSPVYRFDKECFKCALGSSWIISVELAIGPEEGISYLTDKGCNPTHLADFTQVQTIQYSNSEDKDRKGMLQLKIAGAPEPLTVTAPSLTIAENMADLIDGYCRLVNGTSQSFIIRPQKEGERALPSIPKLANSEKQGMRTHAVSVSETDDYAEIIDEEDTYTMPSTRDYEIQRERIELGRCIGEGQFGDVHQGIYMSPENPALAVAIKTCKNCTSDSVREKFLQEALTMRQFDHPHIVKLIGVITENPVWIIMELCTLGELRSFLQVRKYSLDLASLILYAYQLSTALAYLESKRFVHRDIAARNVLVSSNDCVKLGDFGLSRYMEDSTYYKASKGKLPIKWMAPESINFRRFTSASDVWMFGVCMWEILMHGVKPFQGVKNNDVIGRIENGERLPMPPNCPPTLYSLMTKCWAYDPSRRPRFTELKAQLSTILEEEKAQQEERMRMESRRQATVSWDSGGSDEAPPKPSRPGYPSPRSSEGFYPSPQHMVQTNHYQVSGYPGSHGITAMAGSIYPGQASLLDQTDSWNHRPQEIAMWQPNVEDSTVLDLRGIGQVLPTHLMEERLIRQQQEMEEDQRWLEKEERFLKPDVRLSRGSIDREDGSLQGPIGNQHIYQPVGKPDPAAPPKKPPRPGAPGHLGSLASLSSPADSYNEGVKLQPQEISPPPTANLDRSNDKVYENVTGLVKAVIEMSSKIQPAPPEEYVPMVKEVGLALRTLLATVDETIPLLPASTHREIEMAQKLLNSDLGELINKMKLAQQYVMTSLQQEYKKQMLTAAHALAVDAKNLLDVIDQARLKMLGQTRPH
run description: biochemical
Keep in mind that pIC50 stands for -log10 of concentration in molar terms.

1) CCOP(=O)(OCC)c1ccc2[nH]nc(/C=C/c3ccccc3)c2c1 :: 5.23
2) CP(=O)(Oc1ccc2[nH]nc(/C=C/c3ccccc3)c2c1)c1ccccc1 (centres unmarked) :: 6.55
3) O=P(Oc1ccc2[nH]nc(-c3cc4ccccc4[nH]3)c2c1)(c1ccccc1)c1ccccc1 :: 5.54
4) CP(=O)(Oc1ccc2[nH]nc(-c3cc4ccccc4[nH]3)c2c1)c1ccccc1 (centres unmarked) :: 6.09

Switching to the query record.
Task: Looking for the measured pIC50 of CP(=O)(Oc1ccc2[nH]nc(-c3cc4cc(OCCN5CCOCC5)ccc4[nH]3)c2c1)c1ccccc1 (centres unmarked) , can you help?
Output: 7.32

----------
assayed system: human KDR enzyme (Homo sapiens, UniProt P35968)
Sequence (P35968 786-1356): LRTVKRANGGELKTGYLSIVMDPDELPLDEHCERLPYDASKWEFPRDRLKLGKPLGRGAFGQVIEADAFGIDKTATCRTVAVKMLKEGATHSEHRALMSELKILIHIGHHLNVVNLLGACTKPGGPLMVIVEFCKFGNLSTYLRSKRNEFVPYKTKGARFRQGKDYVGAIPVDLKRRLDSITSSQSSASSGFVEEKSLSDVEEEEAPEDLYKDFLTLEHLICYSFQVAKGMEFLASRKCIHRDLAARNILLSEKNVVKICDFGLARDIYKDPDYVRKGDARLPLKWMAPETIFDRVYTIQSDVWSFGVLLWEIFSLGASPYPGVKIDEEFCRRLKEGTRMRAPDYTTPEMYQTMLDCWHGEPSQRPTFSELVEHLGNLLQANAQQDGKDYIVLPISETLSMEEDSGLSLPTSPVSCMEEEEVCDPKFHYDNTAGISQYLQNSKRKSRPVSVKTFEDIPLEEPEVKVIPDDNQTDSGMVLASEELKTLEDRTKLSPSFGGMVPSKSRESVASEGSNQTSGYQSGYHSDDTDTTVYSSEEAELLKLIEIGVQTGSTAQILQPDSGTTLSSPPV
Classes based on IC50: low (below 500 nM), mid (500 nM to below 2000 nM), high (2000 nM or more)

1) COP(=O)(Oc1ccc2[nH]nc(-c3ccc[nH]3)c2c1)c1ccccc1 (centres unmarked) :: mid

Task: Which IC50 category applies to COP(=O)(Oc1ccc2[nH]nc(-c3cc4ccccc4[nH]3)c2c1)C1CCCCC1 (centres unmarked) here?
Output: mid

Task: Which IC50 category applies to `COP(=O)(O)c1ccc2[nH]nc(-c3cccs3)c2c1` here?
Output: high

Task: Which IC50 category applies to `COP(=O)(O)c1ccc2[nH]nc(-c3cc4ccccc4[nH]3)c2c1` here?
Output: high

Task: Which IC50 category applies to COc1ccc2[nH]c(-c3n[nH]c4ccc(OP(=O)(OC)c5ccccc5)cc34)cc2n1 (centres unmarked) here?
Output: low

Task: Which IC50 category applies to COP(=O)(Oc1ccc2[nH]nc(-c3cc4ccccc4s3)c2c1)c1ccccc1 (centres unmarked) here?
Output: mid

----------
// IC50 collected for UniProt P35968
Lab book: enter the figure in nM, no units written.

1. O=P(Oc1ccc2[nH]nc(/C=C/c3ccccc3)c2c1)(c1ccccc1)c1ccccc1 [Example 02] :: 508

Task: Give UniProt P35968 IC50 for CC(C)OP(=O)(Oc1ccc2[nH]nc(-c3cc4ccccc4[nH]3)c2c1)c1ccccc1 (centres unmarked) [Example 07]
Output: 2050

Task: Give UniProt P35968 IC50 for O=P(Oc1ccc2[nH]nc(-c3cc4ccccc4[nH]3)c2c1)(c1ccccc1)c1ccccc1 [Example 04]
Output: 1630

Task: Give UniProt P35968 IC50 for CP(C)(=O)Oc1ccc2[nH]nc(-c3cc4ccccc4[nH]3)c2c1 [Example 18]
Output: 228

Task: Give UniProt P35968 IC50 for O=P(OCc1ccccc1)(Oc1ccc2[nH]nc(-c3cc4ccccc4[nH]3)c2c1)c1ccccc1 (centres unmarked) [Example 08]
Output: 5400
